Target: μ opioid receptor (Homo sapiens, UniProt P35372)
Construct: expressed in transfected cells; host or cells: CHO cells (membranes)
Sequence (P35372 whole entry, species assumed): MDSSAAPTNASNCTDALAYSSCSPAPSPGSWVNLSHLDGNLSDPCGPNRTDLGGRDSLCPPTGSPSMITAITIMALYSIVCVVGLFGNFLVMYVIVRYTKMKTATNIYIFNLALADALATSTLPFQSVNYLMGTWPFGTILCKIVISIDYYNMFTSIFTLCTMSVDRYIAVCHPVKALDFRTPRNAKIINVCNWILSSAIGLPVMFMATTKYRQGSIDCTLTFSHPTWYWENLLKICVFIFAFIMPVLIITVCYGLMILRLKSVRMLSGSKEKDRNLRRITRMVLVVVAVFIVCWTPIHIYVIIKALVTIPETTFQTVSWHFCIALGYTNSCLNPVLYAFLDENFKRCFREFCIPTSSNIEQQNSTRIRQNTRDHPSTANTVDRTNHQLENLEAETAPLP
Experiment: Competition binding assay on membranes of CHO cells expressing μ opioid receptor, [3H]-labeled ligand
Settings: Table 1-1; 10 μM concentration of compound; mean ± SD of three measurements; read-out: μOR Binding rate (%)
Where a name gives a salt, the structure may show the parent alone.
READOUT_TYPE: inhibition at 10 µM (%)
Please give a number only; it is taken to be in %.

In the examples that follow, each entry is paired with its recorded inhibition at 10 µM.
- COc1cccc(C2(O)CCC(CS(=O)(=O)c3ccccc3)CC2CN(C)C)c1 (centres unmarked) [hydrochloride]: 86.9
- COc1cccc(C2(O)CCC(N(Cc3ccccc3)S(=O)(=O)c3ccccc3)CC2CN(C)C)c1 (centres unmarked): 70.5
- COc1cccc(C2(O)CCC(NS(=O)(=O)c3ccccc3)CC2CN(C)C)c1 (centres unmarked) [hydrochloride]: 75.8
- COc1cccc(C2(O)CCC(N(C)S(=O)(=O)c3cccc(Cl)c3)CC2CN(C)C)c1 (centres unmarked) [hydrochloride]: 90

I'm curious: which inhibition at 10 µM was measured for COc1cccc(C2(OC(=O)c3ccccc3)CCC(NS(=O)(=O)c3cccc(Cl)c3)CC2CN(C)C)c1 (centres unmarked) tested on μ opioid receptor (Homo sapiens, UniProt P35372)? 70.4

Which measured inhibition at 10 µM belongs to COc1cccc(C2(O)CCC(N(C)S(=O)(=O)c3ccccc3)CC2CN(C)C)c1 (centres unmarked) [hydrochloride] , tested on μ opioid receptor (Homo sapiens, UniProt P35372)? 86.7

Under μ opioid receptor (Homo sapiens, UniProt P35372): inhibition at 10 µM value of COc1cccc(C2(O)CCC(N(Cc3ccccc3)S(=O)(=O)c3cccs3)CC2CN(C)C)c1 (centres unmarked) [hydrochloride] ? 68.4

Tell me reported inhibition at 10 µM for COc1cccc(C2(OC(=O)c3ccccc3)CCC(N(C)S(=O)(=O)Cc3cccc(Cl)c3)CC2CN(C)C)c1 (centres unmarked) , tested with μ opioid receptor (Homo sapiens, UniProt P35372). 89.8
